target_or_test_system: UniProtKB P13621
assay_details: Inhibition of ATP hydrolysis by the F1F0-ATPase
Type: biochemical
condition_set: IC40: concentration for 40% inhibition
# ATP Hydrolysis (IC40 μM) values compiled below

compound="COc1ccc(NC(=NC(=O)c2cccc(Cl)c2)NCCc2c[nH]cn2)cc1 [III-13]" result=">30 µM"
compound="N#Cc1ccc(C(=O)N=C(NCCc2c[nH]cn2)Nc2ccc(-c3ccccc3)cc2)cc1 [II-7]" result=">10 µM"

*Q* Request the reported ATP Hydrolysis (IC40 μM) associated with CS(=O)(=O)c1ccccc1NC(=NC(=O)c1cccc(Cl)c1)NCCc1cnc[nH]1 [III-38]
*A* >30 µM

*Q* Now this one: O=C(N=C(NCCc1c[nH]cn1)Nc1ccc(F)cc1)c1cccc(Cl)c1 [III-16]
*A* >30 µM

*Q* Now this one: COc1cccc(NC(=NC(=O)c2cccc(Cl)c2)NCCc2c[nH]cn2)c1 [III-12]
*A* >30 µM
